# assayed-system: full length human TPH1 (Homo sapiens, UniProt P17752)
# Construct: To generate the enzyme, full length human TPH1 is cloned into the plasmid pET20b(+); made in house; host or cells: E. coli
# Sequence (P17752 whole entry): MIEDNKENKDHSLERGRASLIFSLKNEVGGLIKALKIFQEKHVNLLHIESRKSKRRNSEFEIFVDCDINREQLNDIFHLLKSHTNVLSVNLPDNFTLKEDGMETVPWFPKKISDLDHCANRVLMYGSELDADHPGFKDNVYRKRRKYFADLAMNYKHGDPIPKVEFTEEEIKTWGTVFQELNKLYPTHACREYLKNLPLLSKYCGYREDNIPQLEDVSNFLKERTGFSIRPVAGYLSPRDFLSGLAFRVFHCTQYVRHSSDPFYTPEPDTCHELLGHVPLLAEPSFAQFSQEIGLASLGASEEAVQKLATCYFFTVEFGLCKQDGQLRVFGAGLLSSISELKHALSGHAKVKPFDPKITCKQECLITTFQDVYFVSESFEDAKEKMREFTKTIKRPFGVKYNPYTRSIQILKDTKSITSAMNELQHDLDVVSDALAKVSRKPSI
# assay-method-text: Biochemical in vitro assay using fluorescence readout (TPH1 enzyme activity)
# test-context: Table 1, mean where determined several times
reported-property: IC50 (nM)

// below: answered compounds
{"columns": ["compound", "reported-property", "quantitative-result"],
 "data": [
  ["CN(C)C(=O)c1ccc(OC(C)(C)C(=O)N2CCc3nc4n(c3C2c2ccc(Cl)cc2F)CCCC4)c(Cl)n1 (centres unmarked)", "IC50", 146],
  ["CCc1nc(N2CCCS2(=O)=O)ccc1OCC(=O)N1CCc2nc3n(c2C1c1ccc(Cl)cc1F)CCC3 (centres unmarked)", "IC50", 8],
  ["O=C(COc1ccc(N2CCOCC2)nc1Cl)N1CCc2nc3n(c2C1c1sccc1F)CCOC3 (centres unmarked)", "IC50", 8]
]}

1 = CC(=O)N1CCn2c(nc3c2C(c2ccc(Cl)cn2)N(C(=O)COc2ccc(N4CCOCC4)nc2Cl)CC3)C1 (centres unmarked)
2 = CS(=O)(=O)Nc1ccc(OC2(C(=O)N3CCc4nc5n(c4C3c3ccc(Cl)cc3F)CCCC5)CC2)c(Cl)n1 (centres unmarked)
## Input # min-compare on IC50 between 1 and 2 Returns: label corresponding to the selected item.
## Output 1

1 = CN(C)C(=O)c1ccc(OCC(=O)N2CCc3nc4n(c3C2c2ccc(C3CC3)cc2F)CCCC4)c(Cl)n1 (centres unmarked)
2 = CCc1nc(NS(C)(=O)=O)ncc1OCC(=O)N1CCc2nc3n(c2C1c1ccc(C2CC2)cc1F)CCS3 (centres unmarked)
3 = CCc1nc(NS(C)(=O)=O)ccc1OCC(=O)N1CCc2nc3n(c2C1c1sc(C(=O)N(C)C)cc1F)CCCC3 (centres unmarked)
## Input Put the items in order so that reported IC50 rises from first to last. # respond with the labels, arranged in the requested order
## Output 1, 2, 3
(1: 11 nM, 2: 25 nM, 3: 38 nM)

1 = CN(C)c1ccc(OCC(=O)N2CCc3nc4n(c3C2c2ccc(Cl)cc2F)CCCC4)c(Cl)n1 (centres unmarked)
2 = CC(=O)N1CCn2c(nc3c2C(c2sc(C(=O)N(C)C)cc2F)N(C(=O)COc2ccc(C(=O)N(C)C)nc2Cl)CC3)C1 (centres unmarked)
3 = CCc1nc(N2CCCS2(=O)=O)ccc1OCC(=O)N1CCc2nc3n(c2C1c1sc(C)nc1C)CCC3 (centres unmarked)
## Input Rank order required: IC50, descending. Provide the ranking by listing each label in its place in the requested order.
## Output 2, 1, 3
(2: 27 nM, 1: 13 nM, 3: 8 nM)

P = CS(=O)(=O)Nc1ccc(OCC(=O)N2CCc3nc4n(c3C2c2ccc(Cl)cc2F)CCCC4)c(Cl)n1 (centres unmarked)
Q = O=C(NC1CC1)c1ccc(OCC(=O)N2CCc3nc4n(c3C2c2ccc(Cl)cc2F)CCCC4)c(C2CC2)n1 (centres unmarked)
## Input Which entry has a larger number for IC50, P or Q ? # reply format: chosen label
## Output P
(P: 26 nM, Q: 10 nM)
